Reported IC50 values follow for various compounds
Tested on: SW480, SW620, and PC3 cancer cell lines
Test Details: MTT assay, cancer cell lines as a group
Format: cell-based, human
Condition: all three cancer cell lines (SW480, SW620, PC3), 72 h; read-out: IC50 against all tested cancer cell lines
Value Type: IC50

• CC/C=C\C/C=C\C/C=C\C/C=C\C/C=C\C/C=C\CCC(=O)N1CCCC2CN(c3c(F)cc4c(=O)c(C(=O)O)cn(C5CC5)c4c3OC)CC21 (centres unmarked) = 5.6 to 10.4 µM
• CCCCCCCCCCCCCCCC(=O)N1CCC[C@H]2CN(c3c(F)cc4c(=O)c(C(=O)O)cn(C5CC5)c4c3OC)C[C@H]21 = 5.6 to 10.4 µM

---

Test system: PC3 cells
Test Details: MTT assay, PC3
Format: cell-based, human
Condition: SI = IC50 for normal cell line (HaCaT)/IC50 cancer cell line
Value Type: SI PC3

- CC/C=C\C/C=C\C/C=C\C/C=C\C/C=C\C/C=C\CCC(=O)N1CCCC2CN(c3c(F)cc4c(=O)c(C(=O)O)cn(C5CC5)c4c3OC)CC21 (stereo not shown): 14.5
- C=CCCCCC(=O)N1CCCC2CN(c3c(F)cc4c(=O)c(C(=O)O)cn(C5CC5)c4c3OC)CC21 (stereo not shown) [Compound 10m]: 19.0
- COc1c(N2CC3CCCN(C(C)=O)C3C2)c(F)cc2c(=O)c(C(=O)O)cn(C3CC3)c12 (stereo not shown) [Compound 14m]: 6.9
- CCCCC/C=C\C/C=C\CCCCCCCC(=O)N1CCCC2CN(c3c(F)cc4c(=O)c(C(=O)O)cn(C5CC5)c4c3OC)CC21 (stereo not shown) [Compound 11m]: 25.4
- CCCCCCCC(=O)N1CCCC2CN(c3c(F)cc4c(=O)c(C(=O)O)cn(C5CC5)c4c3OC)CC21 (stereo not shown) [Compound 15m]: 28.1
- CCCCCCCC/C=C/CCCCCCCC(=O)N1CCCC2CN(c3c(F)cc4c(=O)c(C(=O)O)cn(C5CC5)c4c3OC)CC21 (stereo not shown): 17.3
- CCCCC/C=C\C/C=C\C/C=C\CCCCC(=O)N1CCCC2CN(c3c(F)cc4c(=O)c(C(=O)O)cn(C5CC5)c4c3OC)CC21 (stereo not shown) [Compound 12m]: 6.0

---

System: S. aureus NCTC 4163
Test Details: MIC, twofold microdilution, standard strain
Assay type: cell-based
Condition: Staphylococcus aureus, NCTC4163; 18 h of treatment; read-out: MIC S. aureus NCTC 4163
Reported MIC values follow for various compounds
Value Type: MIC (µg/mL)

• COc1c(N2CC3CCCN(C(=O)/C=C(\C)CCC=C(C)C)C3C2)c(F)cc2c(=O)c(C(=O)O)cn(C3CC3)c12 (stereo not shown) [Compound 3m] = 8
• COc1c(N2C[C@@H]3CCCN[C@@H]3C2)c(F)cc2c(=O)c(C(=O)O)cn(C3CC3)c12 [MXF, moxifloxacin, reference compound] = 0.06
• COc1c(N2CC3CCCN(C(C)=O)C3C2)c(F)cc2c(=O)c(C(=O)O)cn(C3CC3)c12 (stereo not shown) [Compound 14m] = 0.25
• C=CCCCCC(=O)N1CCCC2CN(c3c(F)cc4c(=O)c(C(=O)O)cn(C5CC5)c4c3OC)CC21 (stereo not shown) [Compound 10m] = 2
• CCCCCCCC/C=C\CCCCCCCCCCCC(=O)N1CCCC2CN(c3c(F)cc4c(=O)c(C(=O)O)cn(C5CC5)c4c3OC)CC21 (stereo not shown) [Compound 7m] = 256
• CCCCC/C=C\C/C=C\C/C=C\CCCCC(=O)N1CCCC2CN(c3c(F)cc4c(=O)c(C(=O)O)cn(C5CC5)c4c3OC)CC21 (stereo not shown) [Compound 12m] = 64
• C/C=C/C(=O)N1CCCC2CN(c3c(F)cc4c(=O)c(C(=O)O)cn(C5CC5)c4c3OC)CC21 (stereo not shown) [Compound 1m] = 0.5
• C/C=C/C=C/C(=O)N1CCCC2CN(c3c(F)cc4c(=O)c(C(=O)O)cn(C5CC5)c4c3OC)CC21 (stereo not shown) [Compound 2m] = 1
• CCCCCCCC/C=C\CCCCCCCC(=O)N1CCCC2CN(c3c(F)cc4c(=O)c(C(=O)O)cn(C5CC5)c4c3OC)CC21 (stereo not shown) [Compound 4m] = 128
• CC/C=C\C/C=C\C/C=C\C/C=C\C/C=C\C/C=C\CCC(=O)N1CCCC2CN(c3c(F)cc4c(=O)c(C(=O)O)cn(C5CC5)c4c3OC)CC21 (stereo not shown) [Compound 8m] = 2
• CCCCCCCCCCCCCCCCCC(=O)N1CCCC2CN(c3c(F)cc4c(=O)c(C(=O)O)cn(C5CC5)c4c3OC)CC21 (stereo not shown) [Compound 16m] = 64
• CCCCC/C=C\C/C=C\C/C=C\C/C=C\CCCC(=O)N1CCCC2CN(c3c(F)cc4c(=O)c(C(=O)O)cn(C5CC5)c4c3OC)CC21 (stereo not shown) [Compound 13m] = 16
• CC/C=C\C/C=C\C/C=C\CCCCCCCC(=O)N1CCCC2CN(c3c(F)cc4c(=O)c(C(=O)O)cn(C5CC5)c4c3OC)CC21 (stereo not shown) [Compound 6m] = 16
• CCCCCCCC(=O)N1CCCC2CN(c3c(F)cc4c(=O)c(C(=O)O)cn(C5CC5)c4c3OC)CC21 (stereo not shown) [Compound 15m] = 4

Attribution: paper PMC9181188
